# system: KRas wild type (Homo sapiens (Human), UniProt P01116)
# Sequence (P01116-2 other isoform, or with tags, fused parts or gaps): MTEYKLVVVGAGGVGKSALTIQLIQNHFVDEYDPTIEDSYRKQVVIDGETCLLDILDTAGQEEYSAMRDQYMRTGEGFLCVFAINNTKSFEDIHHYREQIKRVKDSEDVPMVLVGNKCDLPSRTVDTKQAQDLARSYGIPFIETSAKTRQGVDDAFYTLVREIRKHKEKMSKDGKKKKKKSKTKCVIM
# assay-notes: Ras GTP binding domain inhibition assay (labeled GTP)
# conditions: 20 μM compound; KRas wild type; read-out: % Inhibition at 20 μM of K-Ras mutant and wild-type protein, KRas wild type
# key: entry, value: inhibition at 20 µM
parameter: inhibition at 20 µM

# compound, parameter, measured-value
records = [
    ("Oc1nc(-c2ccccn2)nc2c(C3CC3)csc12 [drawing 3518]", "inhibition at 20 µM", "25 to 50%"),
    ("Cn1ccnc1-c1nc(NCCCO)c2c(-c3ccccc3)c(-c3ccccc3)sc2n1 [drawing 3579]", "inhibition at 20 µM", "25 to 50%"),
    ("Oc1nc(-c2ccccn2)nc2c1c(-c1ccccc1)nn2-c1ccccn1 [drawing 3539]", "inhibition at 20 µM", "25 to 50%"),
    ("Cn1ccnc1-c1nc(NCCOC(F)(F)F)c2c(-c3ccccc3)c(-c3ccccc3)sc2n1 [drawing 3568]", "inhibition at 20 µM", "25 to 50%"),
    ("COCCNc1nc(-c2cccc(N)n2)nc2sc(-c3ccccc3)c(-c3ccccc3)c12 [drawing 3591]", "inhibition at 20 µM", "0%"),
    ("Cn1ccnc1-c1nc(O)c2sc(-c3ccccc3)c(-c3cccc(C(F)(F)F)c3)c2n1 [drawing 3592]", "inhibition at 20 µM", "1 to 25%"),
    ("COCCNc1nc(-c2nccn2C)nc2sc(-c3ccncc3)c(-c3ccccc3)c12 [drawing 3582]", "inhibition at 20 µM", "76 to 100%"),
    ("Cn1ccnc1-c1nc(O)c2scc(-c3ccccc3)c2n1 [drawing 3614]", "inhibition at 20 µM", "25 to 50%"),
    ("CC(C)c1csc2c(O)nc(-c3ccccn3)nc12 [drawing 3487]", "inhibition at 20 µM", "51 to 75%"),
    ("CC(C)Cc1csc2c(O)nc(-c3ccccn3)nc12 [drawing 3494]", "inhibition at 20 µM", "25 to 50%"),
    ("CC(C)OCCNc1nc(-c2nccn2C)nc2sc(-c3ccccc3)c(-c3ccccc3)c12 [drawing 3567]", "inhibition at 20 µM", "51 to 75%"),
    ("COc1ccc(CCC(=O)Nc2nc(-c3ccccn3)nc3sccc23)cn1 [drawing 3493]", "inhibition at 20 µM", "25 to 50%"),
    ("Oc1nc(-c2ccccn2)nc2cc(-c3ccccc3)sc12 [drawing 3562]", "inhibition at 20 µM", "51 to 75%"),
    ("Cc1sc2c(O)nc(-c3nccn3C)nc2c1-c1ccccc1 [drawing 3594]", "inhibition at 20 µM", "25 to 50%"),
    ("COc1nc(-c2ccccn2)nc2c1c(-c1ccccc1)nn2-c1ccccn1 [drawing 3540]", "inhibition at 20 µM", "25 to 50%"),
    ("Cc1sc2c(O)nc(-c3ccccn3)nc2c1-c1ccccc1Cl [drawing 3515]", "inhibition at 20 µM", "1 to 25%"),
    ("Cn1cnc(-c2nc(O)c3scc(-c4cccc(C(F)(F)F)c4)c3n2)c1 [drawing 3604]", "inhibition at 20 µM", "51 to 75%"),
    ("COC(C)(C)c1ccc(-c2csc3c(O)nc(-c4nccn4C)nc23)cc1 [drawing 3618]", "inhibition at 20 µM", "25 to 50%"),
    ("Oc1nc(-c2ccccn2)nc2cc(-c3ccncc3)sc12 [drawing 3561]", "inhibition at 20 µM", "51 to 75%"),
    ("OCC1(c2ccc(-c3nc(-c4ccccn4)nc(O)c3Oc3ccccc3)cc2)CC1 [drawing 3534]", "inhibition at 20 µM", "1 to 25%"),
    ("COCC(C)Nc1nc(-c2ccccn2)nc2sc(-c3ccncc3)c(-c3ccccc3)c12 (stereo not shown) [drawing 3541]", "inhibition at 20 µM", "25 to 50%"),
    ("COc1nc(-c2ccccn2)nc2c(C3CCC3)csc12 [drawing 3480]", "inhibition at 20 µM", "1 to 25%"),
    ("Cc1sc2c(O)nc(-c3nccn3C)nc2c1-c1ccc(F)cc1F [drawing 3621]", "inhibition at 20 µM", "1 to 25%"),
    ("Oc1nc(-c2ccccn2)nc2c(C3CCC3)csc12 [drawing 3478]", "inhibition at 20 µM", "25 to 50%"),
    ("O=c1[nH]c(-c2ccccn2)nc2c([C@@H]3O[C@H](CO)[C@@H](O)[C@H]3O)csc12 [drawing 3527]", "inhibition at 20 µM", "25 to 50%"),
    ("COCCNc1nc(-c2nccn2C)nc2sc(-c3ccc(OC)cc3)c(-c3ccccc3)c12 [drawing 3597]", "inhibition at 20 µM", "1 to 25%"),
    ("Oc1cccc(-c2csc3c(O)nc(-c4ccccn4)nc23)n1 [drawing 3498]", "inhibition at 20 µM", "51 to 75%"),
    ("CC(C)COc1ccc(-c2c(-c3ccccc3)sc3c(O)nc(-c4nccn4C)nc23)cn1 [drawing 3587]", "inhibition at 20 µM", "51 to 75%"),
]
